Tested on: 519858-162-T-J1-PDC complex spheroid growth, % test/control;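 further: seven day drug exposure begun three days after spheroid seeding; 100% = DMSO vehicle wells and lower values mean less viable spheroid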
assay-protocol: Anticancer human tumor 519858-162-T-J1-PDC patient-derived colon adenocarcinoma cell line growth inhibition [Asc]
test-conditions: second compound 0.0316 µM; first compound 0.0316 µM; active compounds read low
observable: viability, T/C (%)

| molecule | value-unit | assay-value |
| --- | --- | --- |
| C=C(F)C(=O)N1CCN(c2nc(OCC3CCCN3C)nc3c2CCN(c2cccc4cccc(Cl)c24)C3)CC1CC#N (stereo not drawn) + CNC(C)C(=O)NC1CN(S(=O)(=O)c2cccc(S(=O)(=O)N3CCC4CCC(C(=O)NC(c5ccccc5)c5ccccc5)N4C(=O)C(NC(=O)C(C)NC)C3)c2)CCC2CCC(C(=O)NC(c3ccccc3)c3ccccc3)N2C1=O | % | 94.7 |
| C=C(F)C(=O)N1CCN(c2nc(OCC3CCCN3C)nc3c2CCN(c2cccc4cccc(Cl)c24)C3)CC1CC#N (stereo not drawn) + Cc1c(S(C)(=O)=O)c(-c2cc(F)cc(N3CCN(c4ccc(NS(=O)(=O)c5ccc(NC(CCN6CCC(C(=O)OCCCP(=O)(O)O)CC6)CSc6ccccc6)c(S(=O)(=O)C(F)(F)F)c5)cc4)CC3)c2)c(-c2ccc(Cl)cc2)n1C(C)C | % | 43.8 |
| C=CC(=O)N1CCN(c2nc(=O)n(-c3c(C)ccnc3C(C)C)c3nc(-c4c(O)cccc4F)c(F)cc23)C(C)C1 (stereo not drawn) + Cc1c(S(C)(=O)=O)c(-c2cc(F)cc(N3CCN(c4ccc(NS(=O)(=O)c5ccc(NC(CCN6CCC(C(=O)OCCCP(=O)(O)O)CC6)CSc6ccccc6)c(S(=O)(=O)C(F)(F)F)c5)cc4)CC3)c2)c(-c2ccc(Cl)cc2)n1C(C)C | % | 93.5 |
